From: PubChem BioAssay

Reported z-score values are given for each entry in this list.
Assay: S. cerevisiae RM11-1a growth modifiers, primary screen, strain RM11-1a, OD600, basal, 24 h (AID 1177);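 further: cultures grown under basal conditions with no added stressor; test concentration not given here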
Conditions: OD600, 24 h, higher = more signal, called active from +8 up or from −8 down
// response body must contain only the number

COMPOUND	z-score
CCOC(=O)C=Cc1ccccc1O	-8.46
Cc1ccc(S[C@]2(C(=O)NCC(C)C)CC(=O)N(C3Cc4ccccc4C3)[C@@H]2c2ccc(CO)cc2I)cc1	0.207
COCCOC(=O)N1C(=O)[C@@]2(c3cc(C#CCC(C(=O)OC)C(=O)OC)ccc31)[C@H](c1ccc(O)cc1)N1[C@H](c3ccccc3)[C@H](c3ccccc3)OC(=O)[C@H]1[C@@H]2C(=O)NC[C@H](O)c1ccccc1	0.592

Qu. Any idea what its z-score is? The compound is COCC(=C=CC[C@@H](O)c1ccc(OCCO)cc1)CCO
Ans. 0.453

Qu. Request: COc1cc2c(cc1O)C(c1ccc(CN3CCCC3)cc1)N(C)CC2 (stereo not drawn)
Ans. 0.697

Qu. Request: COCCOC(=O)N1C(=O)[C@@]2(c3cc(C#CC4(O)CCCCCC4)ccc31)[C@H](C(=O)N1CCN(c3ncccn3)CC1)[C@H]1C(=O)O[C@H](c3ccccc3)[C@H](c3ccccc3)N1[C@@H]2c1ccccc1OCCO
Ans. 3.05

Qu. Request: C=CCC(OC(C)=O)[C@@H]1[C@@H](N(Cc2ccc(-c3cccc(C(F)(F)F)c3)o2)C(=O)Cc2ccc(OC)cc2)c2cc(OCCCO)ccc2N1C(=O)Cc1ccc2ccccc2c1 (stereo partly drawn)
Ans. 0.132

Qu. Request: O=c1cccc(-c2ccc(F)cc2)o1
Ans. 0.18

----------
Assay: PSAC antagonists in infected red cells, primary screen, cell-based, P. falciparum Indochina, OD700, 18 h (AID 1157)
Settings: P. falciparum Indochina infected erythrocytes, osmotic lysis OD700, 18 h; higher = more signal, called active from +8 up or from −8 down
# z-score >= 0.8 gives true (1), anything below gives false (0)

COMPOUND	CLASS_ASSIGNMENT
O=C1OCCC/C=C\[C@H]2OC34C=CCN(c5ccc6ccccc6c5)C(=O)[C@H]3N(CCCO)C(=O)[C@@H]4C12 (some centres not stated)	false (0)
[N-]=[N+]=Nc1ccccc1C[C@@]1(C(=O)O)N=C(c2ccc(OCCCO)cc2)O[C@@H]1c1ccccc1N=[N+]=[N-]	true (1)
C=C(/C(=C/C[C@@H](OC(C)=O)c1ccc(CO)o1)c1cc(C(=O)OC)ccc1OC)C(C)C	false (0)
CCOC(=O)C1=CCC(c2ccco2)N(S(=O)(=O)c2ccc(C)cc2)C1 (configuration not stated)	false (0)
CN1C(=O)[C@@]2(Cc3ccccc3)N=C(c3ccc(OCCCO)cc3)O[C@H]2c2ccccc21	true (1)

API: the following record is the query input.
Qu. Please indicate if the recorded z-score for COc1ccc(C#Cc2ccc3c(c2)[C@]2(C(=O)N3)[C@H](c3ccc(OCCO)cc3)N3[C@H](c4ccccc4)[C@H](c4ccccc4)OC(=O)[C@H]3[C@@H]2C(=O)N2CCc3cc(OC)c(OC)cc3C2)cc1 meets or exceeds 0.8.
Ans. true (1)

----------
Biological target: Dihydroorotate dehydrogenase (quinone), mitochondrial (Plasmodium falciparum (isolate 3D7))
Assay: PfDHODH enzyme inhibitors, primary screen, biochemical, C-terminal His tag, absorbance 600 nm (AID 1175);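 further: recombinant parasite enzyme with a five histidine tag at its C terminus; test concentration not given here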
Details: DCIP absorbance 600 nm, higher = more signal, called active from +8 up or from −8 down
Reported composite z-score values are given for each entry in this list.
// response body must contain only the number

Some entries whose results are on file:
MOLECULE	READOUT_TYPE	MEASURED
CCN(CC)c1ccc(N2CC=CC34O[C@@H]5/C=C\CCC(C)OC(=O)C5[C@H]3C(=O)N(C(C)CO)[C@@H]4C2=O)cc1 (stereo partly specified)	composite z-score	0.881
NCCCCCNC(=O)[C@H]1C[C@H]2C(=O)N[C@@H](Cc3ccccc3)C(=O)N2[C@H]1c1ccc(O)cc1	composite z-score	1.21
CCCCCCCCCCC(O)C1C=CC2C(=O)N(C)C(=O)C2N1Nc1cc(OC)c(OC)c(OC)c1 (stereo unspecified)	composite z-score	-1.3
O=C1[C@@H]2[C@@H](CC(COc3ccccc3)=C3[C@@H](CCc4ccccc4)OB(O)C[C@@H]32)C(=O)N1Cc1ccccc1	composite z-score	-0.77
C=CCC(OC(C)=O)[C@@H]1[C@@H](N(Cc2ccc(-c3cccc(C(F)(F)F)c3)o2)C(=O)Cc2ccc(OC)cc2)c2cc(OCCCO)ccc2N1C(=O)Cc1ccc2ccccc2c1 (stereo partly specified)	composite z-score	1.02
CN(C)C(=O)[C@@]1(CCC(=O)OC(C)(C)C)N=C(c2ccc(OCCCO)cc2)O[C@H]1c1ccccc1CN=[N+]=[N-]	composite z-score	-0.261

Qu. Any idea what its composite z-score is? The molecule is C=C(CCCC)C(=O)CC[C@H](OC(C)=O)c1ccc(OCCO)cc1
Ans. -0.788

Qu. Request: CN1C(=O)C2C(C1=O)C1C=C(CCCO)C2C(c2cccs2)N1Cc1cc2c(cc1Br)OCO2 (stereo unspecified)
Ans. -0.539

Qu. Request: CCOC(=O)C1=CCC(c2ccco2)N(S(=O)(=O)c2ccc(C)cc2)C1 (stereo unspecified)
Ans. -2.2
